- protocol: Toxicokinetics in 13-week topical ocular dog study
- assay_context: male, beagle, in vivo, topical or ocular, 50 mg/mL/occasion, male dogs, 50 mg/mL, 12 daily doses, Week 4, read-out: AUC0-24
readout_name: AUC(0-t) (ng·h/mL)

- compound: "Cc1ccccc1OCC(=O)N[C@@H](CC(C)C)C(=O)N[C@@H](Cc1ccc(OC(=O)N2CCC(C(N)=O)CC2)cc1)C(=O)O [GW559090]"
  observed_value: 142

====

- protocol: Toxicokinetics in 13-week topical ocular dog study
- assay_context: male, beagle, in vivo, topical or ocular, 50 mg/mL/occasion, male dogs, 50 mg/mL, 6 daily doses, Week 4

- compound: "Cc1ccccc1OCC(=O)N[C@@H](CC(C)C)C(=O)N[C@@H](Cc1ccc(OC(=O)N2CCC(C(N)=O)CC2)cc1)C(=O)O [GW559090]"
  Tmax: "10 min"

====

- protocol: Toxicokinetics in 13-week topical ocular dog study
- assay_context: male, beagle, in vivo, topical or ocular, 30 mg/mL/occasion, male dogs, 30 mg/mL, 6 daily doses, Week 4, read-out: Cmax
readout_name: Cmax (ng/mL)

- smiles_str: "Cc1ccccc1OCC(=O)N[C@@H](CC(C)C)C(=O)N[C@@H](Cc1ccc(OC(=O)N2CCC(C(N)=O)CC2)cc1)C(=O)O"
  observed_value: 5.3

====

- protocol: Toxicokinetics in 13-week topical ocular rabbit study
- assay_context: female, New Zealand White, in vivo, topical or ocular, 50 mg/mL/occasion, female rabbits, 50 mg/mL, 6 daily doses, Week 13, read-out: AUC0-1
readout_name: AUC(0-t) (ng·h/mL)

- smiles_str: "Cc1ccccc1OCC(=O)N[C@@H](CC(C)C)C(=O)N[C@@H](Cc1ccc(OC(=O)N2CCC(C(N)=O)CC2)cc1)C(=O)O"
  readout_name: "AUC(0-t)"
  measure_unit: "ng·h/mL"
  observed_value: 15.7

====

- protocol: Toxicokinetics in 13-week topical ocular rabbit study
- assay_context: female, New Zealand White, in vivo, topical or ocular, 50 mg/mL/occasion, female rabbits, 50 mg/mL, 6 daily doses, Week 13, after the first daily dose

- smiles_str: "Cc1ccccc1OCC(=O)N[C@@H](CC(C)C)C(=O)N[C@@H](Cc1ccc(OC(=O)N2CCC(C(N)=O)CC2)cc1)C(=O)O"
  measure_unit: "min"
  Tmax: 4.98

====

- protocol: Toxicokinetics in 13-week topical ocular rabbit study
- assay_context: male, New Zealand White, in vivo, topical or ocular, 50 mg/mL/occasion, male rabbits, 50 mg/mL, 6 daily doses, Day 1, after the first daily dose

- smiles_str: "Cc1ccccc1OCC(=O)N[C@@H](CC(C)C)C(=O)N[C@@H](Cc1ccc(OC(=O)N2CCC(C(N)=O)CC2)cc1)C(=O)O"
  Tmax: "4.98 min"

====

- protocol: Toxicokinetics in 13-week topical ocular rabbit study
- assay_context: male, New Zealand White, in vivo, topical or ocular, 30 mg/mL/occasion, male rabbits, 30 mg/mL, 6 daily doses, Week 4, read-out: AUC0-24
- Description: GW559090A was given to New Zealand White Rabbits by topical ocular administration for 13 weeks. Animals were dosed six or twelve times per day, with one hour between doses. Treatment groups were: (1) vehicle (12 times a day), (2) 30 mg/mL/occasion given six times a day, (3) 50 mg/mL/occasion given six times a day, or (4) 50 mg/mL/occasion, given 12 times a day. […]

- smiles_str: "Cc1ccccc1OCC(=O)N[C@@H](CC(C)C)C(=O)N[C@@H](Cc1ccc(OC(=O)N2CCC(C(N)=O)CC2)cc1)C(=O)O"
  AUC(0-t): "55.4 ng·h/mL"
